Hey, just so you know, these numbers are from the supplement of paper PMC8728848.

MEASURED ON: Fuc(a1-2)Gal(b1-3)GlcNAc(b1-3)Gal(b1-4)Glc
ASSAY EXPLANATION: glycan array binding signal (z-score within array); higher = stronger binding
CONDITION INFO: glycan notation: IUPAC condensed, linker removed
This excerpt belongs to a sample that is enriched for the strongest signals.
MEASUREMENT TYPE: glycan array binding signal (z-score)

>  <BINDER>
EULS2 M1 (Oryza sativa) (protein) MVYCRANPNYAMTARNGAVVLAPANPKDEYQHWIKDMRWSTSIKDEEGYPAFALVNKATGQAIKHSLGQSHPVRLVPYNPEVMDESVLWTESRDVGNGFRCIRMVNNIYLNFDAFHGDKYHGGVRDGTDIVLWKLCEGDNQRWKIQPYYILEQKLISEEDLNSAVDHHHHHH

>  <RESULT>
-0.208

$$$$
>  <BINDER>
Threefoil (Haloarcula marismortui) (protein) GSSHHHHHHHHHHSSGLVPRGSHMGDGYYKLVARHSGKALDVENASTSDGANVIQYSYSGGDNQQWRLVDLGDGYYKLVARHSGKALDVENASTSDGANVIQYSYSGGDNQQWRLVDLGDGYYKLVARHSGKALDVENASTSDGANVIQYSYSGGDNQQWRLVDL

>  <RESULT>
-0.192

$$$$
>  <BINDER>
CML1 (Coprinopsis cinerea) (protein) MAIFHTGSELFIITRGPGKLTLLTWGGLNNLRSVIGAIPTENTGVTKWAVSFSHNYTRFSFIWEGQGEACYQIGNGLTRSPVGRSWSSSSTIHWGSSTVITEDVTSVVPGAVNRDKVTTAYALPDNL

>  <RESULT>
4.85

$$$$
>  <BINDER>
AAA (Anguilla anguilla), Q7SIC1 (protein) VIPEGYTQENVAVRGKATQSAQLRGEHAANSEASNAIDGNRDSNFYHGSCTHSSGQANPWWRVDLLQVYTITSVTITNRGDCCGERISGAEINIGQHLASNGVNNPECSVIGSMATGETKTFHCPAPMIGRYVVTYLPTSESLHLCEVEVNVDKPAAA

>  <RESULT>
-0.189

$$$$
>  <BINDER>
EUL D1A second (Oryza sativa) (protein) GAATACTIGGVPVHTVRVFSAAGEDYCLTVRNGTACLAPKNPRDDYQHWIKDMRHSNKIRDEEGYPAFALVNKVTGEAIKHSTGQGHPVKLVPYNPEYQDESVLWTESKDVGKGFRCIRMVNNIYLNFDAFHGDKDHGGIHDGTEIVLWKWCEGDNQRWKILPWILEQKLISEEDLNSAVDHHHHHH

>  <RESULT>
-1.01

$$$$
>  <BINDER>
CFEM-PPl (Pichia pastoris), F2QPV1 (protein) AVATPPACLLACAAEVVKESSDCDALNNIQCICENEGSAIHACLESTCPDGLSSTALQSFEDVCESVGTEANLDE

>  <RESULT>
-0.261

$$$$
>  <BINDER>
CTLY 1 (Homo sapiens), Q6ZS10 (protein) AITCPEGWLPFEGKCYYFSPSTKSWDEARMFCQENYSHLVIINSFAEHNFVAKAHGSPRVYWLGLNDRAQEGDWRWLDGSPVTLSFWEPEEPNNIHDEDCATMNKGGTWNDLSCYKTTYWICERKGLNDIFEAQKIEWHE

>  <RESULT>
-0.241

$$$$
